- Tested on: P388 leukemia ip, CD2F1 mice, survival T/C
- procedure_summary: NCI In Vivo Anticancer Drug Screen. Data for tumor model P388 Leukemia (intraperitoneal) in CD2F1 (CDF1) mice
- settings: endpoint: median survival time; dose: 50.0 mg/kg/injection; schedule: Q01DX009 (ip); vehicle: saline
Inconclusive results and toxic doses are left out. How the source made its calls: active means survival T/C of 150% or more; inactive means T/C below 125% in these data.
Your response should consist of one outcome taken from TRUE for active, FALSE for inactive

Worked cases, answers included:
INSERT INTO assay_data (compound, cat) VALUES
  ('COc1ccccc1N1C(=O)/C(=N\OC(=O)c2c(-c3c(Cl)cccc3Cl)noc2C)SC1=S', 'FALSE'),
  ('CCOC(=O)CC[Si](CC)(CC)CC', 'FALSE'),
  ('O=c1[nH]c2ncccc2c(O)c1-c1ccccc1', 'FALSE');

Asked: Please let me know the test result on file for CN1CCCN(C(c2ccccc2)c2ccc(Br)cc2)CC1 (configuration not stated) .
Given back: FALSE

Asked: Another: C=CC(C)n1ccnc1 (configuration not stated)
Given back: FALSE

Asked: Another: COC(OC(CO)C(O)S(=O)(=O)O)C(O)S(=O)(=O)O (configuration not stated)
Given back: TRUE

Asked: Another: CC1CN(CCC#N)CC(C)O1 (configuration not stated)
Given back: FALSE
